Listed compounds paired with reported cytotoxicity at 10 µM
Assay: Toxicity liver stage against HepG2, at 10uM
Format: cell-based
Set-up: test concentration 10 uM, cell line HepG2-A16-CD81EGFP
Details: human, HepG2-A16-CD81EGFP cells; read-out: INHIBITION
observation_type: cytotoxicity at 10 µM (%)

[[record]]
smiles_repr = "CSCCC(=O)NS(=O)(=O)c1ccc2c(c1)OCCO2"
observation_type = "cytotoxicity at 10 µM"
measured_result = -14.7

[[record]]
smiles_repr = "CCc1sc(C(=O)NC2CC2)cc1C"
observation_type = "cytotoxicity at 10 µM"
measured_result = 14.5

[[record]]
smiles_repr = "Cc1cccc2[nH]c(C3CCN(C(=O)c4ccc[nH]4)CC3)nc12"
observation_type = "cytotoxicity at 10 µM"
measured_result = 6.01

[[record]]
smiles_repr = "Cc1ccc(NC2CCN(C(=O)c3ccsc3)CC2)nn1"
observation_type = "cytotoxicity at 10 µM"
measured_result = -9.08


====

Assay: Toxicity liver stage against HepG2, at 10uM
Format: cell-based
Parameters: test concentration 10 uM, cell line HepG2-A16-CD81EGFP
Conditions: human, HepG2-A16-CD81EGFP cells; read-out: INHIBITION
Entries annotated with measured cytotoxicity at 10 µM
observation_type: cytotoxicity at 10 µM (%)

[[record]]
molecule = "CCC1=N[C@@]2(CC[C@@H]3CN(C(=O)NCc4ccccc4)C[C@@H]32)C(=O)N1C"
observation_type = "cytotoxicity at 10 µM"
measured_result = 1.05

[[record]]
molecule = "COC(=O)CC(c1ccc(OC)c(OC)c1)c1oc(C)cc(=O)c1O (stereo not given)"
observation_type = "cytotoxicity at 10 µM"
measured_result = 16.8

[[record]]
molecule = "O=C(c1ccc(-n2cccn2)nc1)N1CCCN(c2cccnn2)CC1"
observation_type = "cytotoxicity at 10 µM"
measured_result = 0.65

[[record]]
molecule = "Cc1ccc(CCC(=O)N2CCOCC2c2ncon2)c(C)c1 (stereo not given)"
observation_type = "cytotoxicity at 10 µM"
measured_result = -6.76

[[record]]
molecule = "COCCN1CCO[C@H]2CN(Cc3cc[nH]n3)C[C@H]21"
observation_type = "cytotoxicity at 10 µM"
measured_result = -105

[[record]]
molecule = "Cc1cc(C)n2c(CCCNS(=O)(=O)c3ccc(F)cc3)nnc2n1"
observation_type = "cytotoxicity at 10 µM"
measured_result = 2.38

[[record]]
molecule = "Cc1nc(C)c(C(=O)NCCNc2ncccn2)s1"
observation_type = "cytotoxicity at 10 µM"
measured_result = -3.65

[[record]]
molecule = "O=C(CCCOc1ccccc1Cl)N1CCCC(n2cncn2)C1 (stereo not given)"
observation_type = "cytotoxicity at 10 µM"
measured_result = -0.0868

[[record]]
molecule = "CN1[C@H](CO)C[C@H](CNCc2ccc(Cl)c(F)c2)[C@@H]1c1ccccc1F"
observation_type = "cytotoxicity at 10 µM"
measured_result = -8.39

[[record]]
molecule = "CC(C)Nc1cc(N2CCC(n3cc(CCO)nn3)CC2)ncn1"
observation_type = "cytotoxicity at 10 µM"
measured_result = 16.3

[[record]]
molecule = "Cc1nc(CN2CCN(C(C)C(=O)NC3CCCC3)CC2)cs1 (stereo not given)"
observation_type = "cytotoxicity at 10 µM"
measured_result = -3.9

[[record]]
molecule = "Cc1cc(C)c2c(c1)NC(=O)C2CC(=O)O (stereo not given)"
observation_type = "cytotoxicity at 10 µM"
measured_result = 9.13

[[record]]
molecule = "CC1(c2ccccc2)CCCN(Cc2nnc(-c3cccnc3)o2)C1 (stereo not given)"
observation_type = "cytotoxicity at 10 µM"
measured_result = -6.64

[[record]]
molecule = "Cc1ccc(C(=O)NCCS(=O)(=O)N2CCSCC2)o1"
observation_type = "cytotoxicity at 10 µM"
measured_result = 6.13

[[record]]
molecule = "CC(C(=O)Nc1cc(F)ccc1F)N1CCN(Cc2ncc[nH]2)CC1 (stereo not given)"
observation_type = "cytotoxicity at 10 µM"
measured_result = -15.8


====

Experiment: Toxicity liver stage against HepG2, at 10uM
Type: cell-based
Set-up: test concentration 10 uM, cell line HepG2-A16-CD81EGFP
Conditions: human, HepG2-A16-CD81EGFP cells; read-out: INHIBITION
The reader will find reported cytotoxicity at 10 µM values listed item by item below.
observation_type: cytotoxicity at 10 µM (%)

[[record]]
molecule = "Cc1noc(C)c1C(=O)N1CCCC(c2nccn2Cc2cscn2)C1 (configuration not stated)"
observation_type = "cytotoxicity at 10 µM"
measured_result = 2.11

[[record]]
molecule = "Cc1nc(C(=O)N(C)C)nn1-c1ccccc1C(C)C"
observation_type = "cytotoxicity at 10 µM"
measured_result = -0.665

[[record]]
molecule = "Cc1nc(N)ncc1C(=O)N1CCCC1(C)C(=O)N(C)C (configuration not stated)"
observation_type = "cytotoxicity at 10 µM"
measured_result = 10.2

[[record]]
molecule = "CC(=O)N1CCC2(CC1)CN(CC1CC1)c1ccc(F)cc12"
observation_type = "cytotoxicity at 10 µM"
measured_result = -113

[[record]]
molecule = "CC(C)c1nc(S(=O)(=O)N2CCSc3ccccc32)c[nH]1"
observation_type = "cytotoxicity at 10 µM"
measured_result = 2.7

[[record]]
molecule = "CC(C)N1CCO[C@H]2CN(C(=O)c3ccc(N(C)C)cc3)C[C@H]21"
observation_type = "cytotoxicity at 10 µM"
measured_result = 3.19

[[record]]
molecule = "CN1C(=O)CC2(CCN(Cc3cnn(C)c3)CC2)c2ccccc21"
observation_type = "cytotoxicity at 10 µM"
measured_result = 15.7

[[record]]
molecule = "Cc1ccccc1-c1cncc(C2CCN(C(C)C)CC2)n1"
observation_type = "cytotoxicity at 10 µM"
measured_result = 1.2

[[record]]
molecule = "CCOC(=O)C1CCN(c2nccc(-n3nc(C)cc3C)n2)CC1"
observation_type = "cytotoxicity at 10 µM"
measured_result = -8.99

[[record]]
molecule = "CC1CCN(c2cc(NC(=O)C3CC3)ncn2)CC1"
observation_type = "cytotoxicity at 10 µM"
measured_result = -8.67

[[record]]
molecule = "COc1cccc2c1OCCCN(Cc1ncccc1C(=O)O)C2"
observation_type = "cytotoxicity at 10 µM"
measured_result = 4.12

[[record]]
molecule = "CC(C)c1nc(C2CCCN2CC(=O)Nc2ccc(Cl)cn2)no1 (configuration not stated)"
observation_type = "cytotoxicity at 10 µM"
measured_result = -3.13

[[record]]
molecule = "COCc1nnc(C(=O)N2CC(N3CCCCC3)C2)o1"
observation_type = "cytotoxicity at 10 µM"
measured_result = -3.57

[[record]]
molecule = "COc1ccccc1C1Cn2c(C)cnc2CN1Cc1ccc(C)nc1 (configuration not stated)"
observation_type = "cytotoxicity at 10 µM"
measured_result = -3.18

[[record]]
molecule = "O=C(NCC1CC1)[C@H]1C[C@H]2OCC[C@H]2N(Cc2ccoc2)C1"
observation_type = "cytotoxicity at 10 µM"
measured_result = -3.01

[[record]]
molecule = "CSc1ncccc1C(=O)NCc1ccc(N(C)C)cc1"
observation_type = "cytotoxicity at 10 µM"
measured_result = 4.74

[[record]]
molecule = "Cc1nc(CNC(=O)Nc2ccc(N(C)C)nc2)sc1C"
observation_type = "cytotoxicity at 10 µM"
measured_result = -0.222

[[record]]
molecule = "O=C(c1cnccn1)N1CC[C@H]2[C@H]1CCN2S(=O)(=O)C1CC1"
observation_type = "cytotoxicity at 10 µM"
measured_result = -168

[[record]]
molecule = "c1cnn(CC2CCCN2Cc2nc(C3CC3)no2)c1 (configuration not stated)"
observation_type = "cytotoxicity at 10 µM"
measured_result = 1.61

[[record]]
molecule = "CN(CC1CCN(CCO)CC1)CC(O)c1ccc(F)cc1 (configuration not stated)"
observation_type = "cytotoxicity at 10 µM"
measured_result = -52.8

[[record]]
molecule = "CC(C)c1ccc(CC2(C)Cc3cc(CC(=O)O)ccc3O2)cc1 (configuration not stated)"
observation_type = "cytotoxicity at 10 µM"
measured_result = 6.65

[[record]]
molecule = "O=C(O)c1cccc(CN2CCCC(c3ccn[nH]3)C2)c1 (configuration not stated)"
observation_type = "cytotoxicity at 10 µM"
measured_result = 3.98


====

Assay: Toxicity liver stage against HepG2, at 10uM
Assay type: cell-based
Parameters: test concentration 10 uM, cell line HepG2-A16-CD81EGFP
Settings: human, HepG2-A16-CD81EGFP cells; read-out: INHIBITION
Mark 0 for cytotoxicity at 10 µM values under -10%, and 1 for everything at or above.

[[record]]
compound = "CCCS(=O)(=O)N1CCN(c2cc(-n3nc(C)cc3C)nc(C)n2)CC1"
assigned_category = 0

[[record]]
compound = "COc1ccc(OCc2sc(C3(O)CCCNCC3)nc2C)cc1 (stereo not given)"
assigned_category = 1

[[record]]
compound = "Cn1cccc1C(=O)N1C[C@H](OCC2CCOCC2)[C@H]2COC[C@H]21"
assigned_category = 0

[[record]]
compound = "Cc1ccc(-n2c(C)nnc2SCC(O)COCc2ccco2)cc1 (stereo not given)"
assigned_category = 0

[[record]]
compound = "Cc1ccc(C(=O)N2C[C@@H]3CCN(c4cccnc4)C[C@@H]3C2)cn1"
assigned_category = 0

[[record]]
compound = "Cn1cc(C(=O)CC2CCCN2C(=O)c2ccc3[nH]ncc3c2)cn1 (stereo not given)"
assigned_category = 1

[[record]]
compound = "COc1ccccc1-c1noc(CN2CCCC2Cn2cccn2)n1 (stereo not given)"
assigned_category = 1

[[record]]
compound = "O=C([C@H]1CCCO1)N1CC[C@H](O)[C@@H]1Cc1ccncc1"
assigned_category = 1

[[record]]
compound = "Cc1cc(C)n(CC2CCCN2C(=O)c2ccc3[nH]nnc3c2)n1 (stereo not given)"
assigned_category = 0

[[record]]
compound = "Cc1cnc(CNC(=O)c2cc3c(s2)CCN3S(C)(=O)=O)cn1"
assigned_category = 1

[[record]]
compound = "CNC(=O)[C@@]12CCO[C@@H]1CCN(S(=O)(=O)c1ccccc1)C2"
assigned_category = 0

[[record]]
compound = "C[C@@H]1CN(C2CCCCC2)CC[C@@]1(O)C1CCOCC1"
assigned_category = 1

[[record]]
compound = "CN(CCc1ccccn1)C(=O)C1Cc2ccccc2CN1C (stereo not given)"
assigned_category = 1

[[record]]
compound = "Cc1ccc(C)c(Sc2nccn(C)c2=O)c1"
assigned_category = 1

[[record]]
compound = "Cc1cc(C)n(CC2CCCCN2CC(=O)Nc2nncs2)n1 (stereo not given)"
assigned_category = 1


All figures here come from ChEMBL document CHEMBL4513216.
